Listed next: entries and their corresponding z-score.
# experiment: FRG1 promoter luciferase signal modulators, primary screen, FRG1 inhibition for FSHD, cell-based, C2C12 myotubes, firefly/Renilla luciferase, luminescence (AID 1084)
# measurementParameters: higher = more signal, called active from +8 up or from −8 down
Please state the value as a number alone, without comment.

{"columns": ["compound", "z-score"],
 "data": [
  ["[N-]=[N+]=NCc1ccccc1C[C@]1(C(=O)NCC(O)CO)N=C(c2ccc(OCCCO)cc2)O[C@H]1c1ccccc1 (some centres not stated)", -0.938],
  ["CCOC(=O)[C@H]1C/C=C/C[C@H](C(=O)OCC)C(=O)O[C@H]2[C@@H](OC)O[C@H](CO)[C@@H](OC(=O)Nc3cccc(F)c3)[C@@H]2OC1=O", 0.15]
]}

# input # query: z-score of entry `CCc1oc(CC[C@@H](CO)NC(=O)NCCn2cc(C3(O)CCCCC3)nn2)c(C(=O)OC)c1C(=O)OC`
# output 0.306

# input Which z-score is listed for `CC(C)OC(=O)C=C1C[C@@H](c2ccccc2C(F)(F)F)O[C@@H](c2ccccc2C(F)(F)F)O1` ?
# output 0.009

====

# experiment: S. cerevisiae growth modulation with rapamycin, primary screen, strain BY4716, OD600, 96 h (AID 1091); note: test concentration not given here
# measurementParameters: higher = more signal, called active from +8 up or from −8 down
Quick rule for you: z-score at 0.7 or higher means class 1, lower means class 0.

Consider the worked cases shown below.
{"columns": ["molecule", "discreteLabel"],
 "data": [
  ["CCCCC(O)C1C=CC2C(=O)N(c3ccccc3)C(=O)C2N1Nc1ccccc1F (centres undefined)", "class 1"],
  ["CCN(CC)c1ccc(N2CC=CC34O[C@@H]5/C=C\\CCC(C)OC(=O)C5[C@H]3C(=O)N(C(CO)C(C)C)[C@@H]4C2=O)cc1 (some centres undefined)", "class 0"]
]}

# input Could you verify whether the entry `C=CCOC(=O)[C@@H]1[C@H]2C(=O)O[C@H](c3ccccc3)[C@H](c3ccccc3)N2[C@H](c2ccc(OCCOC(=O)[C@@H]3C[C@@H]4C(=O)N[C@@H](CCCC[N+](C)(C)C)C(=O)N4[C@@H]3c3cccc(OCCO)c3)cc2)[C@@]12C(=O)Nc1ccc(I)cc12` shows z-score of no less than 0.7?
# output class 0

# input Textbook exercise: given the entry `C=CCOC(=O)[C@H]1[C@@H]2C(=O)O[C@@H](c3ccccc3)[C@@H](c3ccccc3)N2[C@@H](c2ccc(OCCOC(=O)[C@H]3C[C@H]4C(=O)N5CCC[C@H]5C(=O)N4[C@H]3c3ccc(O)cc3)cc2)[C@]12C(=O)Nc1ccc(I)cc12` , state whether its z-score is greater than or equal to 0.7.
# output class 0

# input # bool: z-score of O=C1OCCC/C=C\[C@H]2OC34C=CCN(CCN5CCOCC5)C(=O)[C@H]3N(CCCO)C(=O)[C@@H]4C12 (some centres undefined) >= 0.7
# output class 0

# input Check this molecule for z-score at or above 0.7: `COCCOC(=O)N1C(=O)[C@@]2(c3cc(C#Cc4ccc(OC)cc4)ccc31)[C@H](c1ccc(O)cc1)N1[C@H](c3ccccc3)[C@H](c3ccccc3)OC(=O)[C@H]1[C@@H]2C(=O)NC[C@H](O)c1ccccc1`
# output class 1

====

# experiment: PSAC antagonists in infected red cells, primary screen, cell-based, P. falciparum Indochina, OD700, 2 h (AID 1155);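 note: lysis reports solute entry through the parasite surface anion channel PSAC; channel blockers reduce lysis of infected cells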
# measurementParameters: P. falciparum Indochina infected erythrocytes, osmotic lysis OD700; higher = more signal, called active from +8 up or from −8 down
measuredProperty: z-score
Reply: number alone, nothing else.

{"columns": ["compound", "z-score"],
 "data": [
  ["O=C(NCc1ccccc1)[C@@H]1c2ccccc2C(=O)N(CC23CC4CC(CC(C4)C2)C3)[C@H]1c1ccc(CO)cc1", 0.295],
  ["C[N+](C)(C)CCCC[C@@H]1NC(=O)[C@@H]2C[C@H](C(=O)NCCCCCN)[C@H](c3cccc(OCCO)c3)N2C1=O", 0.508],
  ["CN1C(=O)C2C=CC(C(O)c3cc(C(F)(F)F)cc(C(F)(F)F)c3)N(N3CCCCC3)C2C1=O (stereo not given)", 0.968],
  ["CC(C)(C)OC(=O)CC[C@@]1(C(N)=O)N=C(c2ccc(OCCCO)cc2)O[C@@H]1c1ccccc1", 0.431],
  ["CC(C)(C)OC(=O)CC[C@@]1(C(=O)NCCN2CCOCC2)N=C(c2ccc(OCCCO)cc2)O[C@@H]1c1ccccc1N=[N+]=[N-]", 28],
  ["CN(C)CCCC[C@@H]1NC(=O)[C@H]2C[C@@H](C(=O)NCCCCCNC(=O)CS)[C@@H](c3cccc(OCCO)c3)N2C1=O", 0.55]
]}

# input Item O=C1OCC=C[C@H]2OC34C=CCN(CCN5CCOCC5)C(=O)[C@H]3N(CCCO)C(=O)[C@@H]4[C@@H]12 (stereo not given in full) has what recorded z-score?
# output -0.385

# input Which value of z-score has been reported for O=C1C2C=CC(C(O)C(c3ccccc3)c3ccccc3)N(n3cnnc3)C2C(=O)N1Cc1ccccc1 (stereo not given) in the records?
# output 1.26
